The measurements presented in this section are drawn from ChEMBL document CHEMBL3608293.

ASSAYED_TARGET: Epithelial sodium channel subunit alpha (Mus musculus, UniProt Q61180)
Sequence (Q61180 whole entry): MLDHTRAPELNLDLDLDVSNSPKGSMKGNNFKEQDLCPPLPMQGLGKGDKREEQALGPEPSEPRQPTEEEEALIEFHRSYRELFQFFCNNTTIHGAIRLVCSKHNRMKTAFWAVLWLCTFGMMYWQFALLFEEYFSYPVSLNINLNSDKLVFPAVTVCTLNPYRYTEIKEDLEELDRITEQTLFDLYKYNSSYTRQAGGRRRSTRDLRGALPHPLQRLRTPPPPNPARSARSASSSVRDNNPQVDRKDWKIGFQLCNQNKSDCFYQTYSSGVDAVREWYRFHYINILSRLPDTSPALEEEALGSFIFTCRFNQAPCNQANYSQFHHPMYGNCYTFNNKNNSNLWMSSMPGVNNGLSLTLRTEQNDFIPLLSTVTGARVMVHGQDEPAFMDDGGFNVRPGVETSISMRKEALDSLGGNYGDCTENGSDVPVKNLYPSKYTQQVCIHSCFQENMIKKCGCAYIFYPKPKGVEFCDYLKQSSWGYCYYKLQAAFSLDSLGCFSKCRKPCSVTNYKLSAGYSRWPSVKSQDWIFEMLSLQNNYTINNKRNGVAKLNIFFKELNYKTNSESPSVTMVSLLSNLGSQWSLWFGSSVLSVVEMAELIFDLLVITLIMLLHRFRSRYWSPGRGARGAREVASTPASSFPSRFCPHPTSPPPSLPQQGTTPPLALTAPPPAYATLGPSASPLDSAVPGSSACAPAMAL
EXPERIMENTAL_DETAILS: Inhibition of ENaC in mouse M1 assessed as effect on trans epithelial electrical resistance by measuring short circuit currents by voltage-clamp based Ussing chamber assay
This section presents compounds with their documented pIC50 values.
pIC50 here: minus log base 10 of the concentration, concentration in moles per litre.

Previously resolved entries follow.
> print(dat)
                                   compound  experimental.readout  test.value
1  Nc1nc(N)c(C(=O)N[C@H]2CCC[N+](CCCc3ccc(OCC(=O)NCCCO)cc3)(CCCc3ccc(OCC(=O)NCCCO)cc3)C2)nc1Cl                 pIC50        7.89
2  COc1ccc(CCC[N+]2(CCCc3ccccc3)CCCC(NC(=O)c3nc(Cl)c(N)nc3N)C2)cc1 (stereo unspecified)                 pIC50        8.22
3  Nc1nc(N)c(C(=O)N[C@H]2CCC[N+](CCCc3ccc(OCC(=O)NCCc4ccccn4)cc3)(CCCc3ccc(OCC(=O)NCCc4ccccn4)cc3)C2)nc1Cl                 pIC50        8.22
4  COc1ccc(CCC[N+]2(CCCc3ccc(C(=O)NCCCN(C)C)cc3)CCCC(NC(=O)c3nc(Cl)c(N)nc3N)C2)cc1 (stereo unspecified)                 pIC50        7.70
5  COc1ccc(CCC[N@@+]2(C)CCC[C@H](NC(=O)c3nc(Cl)c(N)nc3N)C2)cc1                 pIC50        7.15

Now let's try a different one.
Retrieve pIC50 measured for Nc1nc(N)c(C(=O)N[C@H]2CCC[N+](CCCc3ccc(OCC(=O)NCCn4ccnc4)cc3)(CCCc3ccc(OCC(=O)NCCn4ccnc4)cc3)C2)nc1Cl and print it.
8.05
